biological target: UniProt:P02730; test: Cellular bicarbonate uptake assay; format: cell-based
Sequence (P02730 whole entry): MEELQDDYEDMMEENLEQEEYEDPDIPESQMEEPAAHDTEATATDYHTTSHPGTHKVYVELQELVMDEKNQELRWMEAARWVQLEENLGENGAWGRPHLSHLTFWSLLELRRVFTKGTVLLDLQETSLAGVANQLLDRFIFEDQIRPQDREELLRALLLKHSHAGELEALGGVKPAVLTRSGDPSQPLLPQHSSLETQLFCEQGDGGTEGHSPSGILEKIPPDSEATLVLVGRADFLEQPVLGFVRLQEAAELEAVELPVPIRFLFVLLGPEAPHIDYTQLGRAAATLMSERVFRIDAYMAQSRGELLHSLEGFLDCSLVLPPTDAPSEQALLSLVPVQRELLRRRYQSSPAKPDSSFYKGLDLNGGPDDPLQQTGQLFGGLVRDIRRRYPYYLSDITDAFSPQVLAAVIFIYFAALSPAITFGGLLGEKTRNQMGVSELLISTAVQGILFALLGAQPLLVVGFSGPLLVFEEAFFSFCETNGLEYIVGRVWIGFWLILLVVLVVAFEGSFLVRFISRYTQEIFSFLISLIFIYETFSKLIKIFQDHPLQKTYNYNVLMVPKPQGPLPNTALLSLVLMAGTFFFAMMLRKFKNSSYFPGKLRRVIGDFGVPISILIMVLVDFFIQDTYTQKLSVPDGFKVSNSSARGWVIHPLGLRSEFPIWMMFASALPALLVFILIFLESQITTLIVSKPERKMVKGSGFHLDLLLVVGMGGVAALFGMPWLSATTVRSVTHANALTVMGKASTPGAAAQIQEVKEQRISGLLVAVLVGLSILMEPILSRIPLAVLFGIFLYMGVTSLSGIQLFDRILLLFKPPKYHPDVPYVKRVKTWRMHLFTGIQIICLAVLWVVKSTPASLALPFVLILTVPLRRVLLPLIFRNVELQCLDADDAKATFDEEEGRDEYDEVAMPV
Observed property: IC50 (µM)
Give your result in µM as a bare value.

I'd like to know its IC50. The compound in question is O=C(O)c1cccnc1Nc1cccc(C(F)(F)F)c1
15
